# Measured On: dopamine receptors
# Procedure Text: Inhibition of [^3 H] spiroperidol binding
# Condition Summary: Table 1
Listing: pIC50 of selected molecules
Note on units: pIC50 is unitless, being -log10 of a concentration expressed in mol/L.

Solved cases below.
| Molecule | Recorded Number |
| --- | --- |
| C1=C(c2ccccc2)CC(CN2CCN(c3ccccn3)CC2)C1 (racemic) | 6.72 |
| C1=C(c2ccccc2)CCCC1CN1CC=C(c2ccccc2)CC1 (racemic) | 6.38 |
| C1=C(c2cnc3ccccc3c2)CCC[C@H]1CN1CC=C(c2ccccc2)CC1 [Example 17a] | 5.96 |

As a next step, examine the molecule that follows.
Prompt line: Reported pIC50 for C1=C(c2ccccc2)CCN(C[C@@H]2CCC=C(c3cnc4ccccc4c3)C2)C1 : what is it?
Response line: 7.12

###

# Test system: Locomotor Activity in Mice
# Procedure Text: Inhibition of locomotor activity in mice
# Assay type: in vivo
# Condition Summary: Mus musculus, ip, read-out: Inhibition of Locomotor Activity in Mice ED50, mice, IP (Table 2)
Experimental Readout: ED50 (mg/kg)
Express the result in mg/kg but write the number alone.

Prompt line: Reported ED50 for C1=C(c2ccccc2)CCN(CCC2CCC=C(c3ccccc3)C2)C1 (racemic) [Compound E, reference compound] : what is it?
Response line: 10.9

###

# Measured On: dopamine receptors
# Procedure Text: Inhibition of [^3 H] spiroperidol binding
# Condition Summary: Table 1
pIC50: −log10 of the molar value.
Decision: pIC50 compared against 7; not below it gives class 1, below it gives class 0.

Look over these answered cases.
| Compound | Measured On | Class Assignment |
| --- | --- | --- |
| C1=C(c2ccccc2)CCN(CC2CCC=C(c3cccs3)C2)C1 (racemic) | dopamine receptors | class 0 |
| CN(C)c1ccc(C2=C[C@H](CN3CC=C(c4ccccc4)CC3)CCC2)cc1 [Example 16a] | dopamine receptors | class 0 |
| CN(C)c1ccc(C2=CCC[C@@H](CN3CC=C(c4ccccc4)CC3)C2)cc1 | dopamine receptors | class 1 |
| C1=C(c2ccccc2)CCN(CC2CCC=C(c3c[nH]c4ccccc34)C2)C1 (racemic) | dopamine receptors | class 0 |

Prompt line: Can C1=C(c2ccccc2)CCN(C[C@@H]2CCC=C(c3ccc4c(c3)OCO4)C2)C1.Cl [Example 18, monohydrochloride] be said to have pIC50 at or above 7?
Response line: class 0

###

# Measured On: dopamine receptors
# Procedure Text: Inhibition of [^3 H] spiroperidol binding
# Condition Summary: Table 1
Experimental Readout: IC50 (µM)
Express the result in µM but write the number alone.

| Compound | IC50 (µM) |
| --- | --- |
| O=C(N[C@H]1CCC[C@@H](CN2CC=C(c3ccccc3)CC2)C1)c1ccccc1 [Example 19] | 0.034 |
| Cc1ccc(C2=CCC[C@@H](CN3CC=C(c4ccccc4)CC3)C2)cc1 [Example 9] | 0.184 |
| C1=C(c2ccccc2)CC(CN2CCN(c3ccccn3)CC2)CC1 (racemic) [Example 4] | 0.141 |
| C1=C(c2ccsc2)CCC[C@H]1CN1CC=C(c2ccccc2)CC1 [Example 15] | 0.251 |
| C1=C(c2ccccc2)CCN(C[C@H]2C=C(c3cccs3)CCC2)C1.Cl [Example 10a, monohydrochloride] | 0.11 |
| C1=C(c2ccccc2)CCN(C[C@@H]2CCC[C@@H](c3ccccc3)C2)C1.Cl [Example 20a, monohydrochloride] | 0.874 |
| Fc1ccc(C2=CCCC(CN3CCN(c4ccccn4)CC3)C2)cc1 (racemic) [Example 5] | 0.143 |

As a next step, examine the compound that follows.
Prompt line: Reported IC50 for Clc1ccc(C2=C[C@H](CN3CC=C(c4ccccc4)CC3)CCC2)cc1 [Example 7a] : what is it?
Response line: 2.32

###

# Measured On: dopamine receptors
# Procedure Text: Inhibition of [^3 H] spiroperidol binding
# Condition Summary: Table 1
Listing: IC50 of selected molecules
Express the result in nM but write the number alone.

Prompt line: Reported IC50 for C1=C(c2ccccc2)CC(CN2CCN(c3ncccn3)CC2)CC1 (racemic) [Example 23] : what is it?
Response line: 354

Prompt line: Reported IC50 for C1=C(c2ccccc2)CCN(C[C@@H]2CCC=C(c3cccs3)C2)C1.Cl [Example 10, monohydrochloride] : what is it?
Response line: 79

Prompt line: Reported IC50 for C1=C(c2ccccc2)CCN(CC2C=C(c3cccs3)CCC2)C1 (racemic) [Example 2a] : what is it?
Response line: 400

Prompt line: Reported IC50 for C1=C(c2ccccc2)CCN(CC2CCC=C(c3ccccc3)C2)C1 (racemic) [Example 1] : what is it?
Response line: 72

Prompt line: Reported IC50 for C1=C(c2ccccc2)CCN(C[C@@H]2CCC[C@H](c3ccccc3)C2)C1.Cl [Example 20, monohydrochloride] : what is it?
Response line: 71

###

# System: Locomotor Activity in Mice
# Procedure Text: Inhibition of locomotor activity in mice
# Assay type: in vivo
# Condition Summary: Mus musculus, ip, read-out: Inhibition of Locomotor Activity in Mice ED50, mice, IP (Table 2)
Experimental Readout: log10 ED50 (log10 of the value in mg/kg)
Use the decimal logarithm of ED50 (mg/kg).

Solved cases below.
| Molecule | Experimental Readout | Recorded Number |
| --- | --- | --- |
| C1=C(c2ccccc2)CCN(C2CCC=C(c3ccccc3)C2)C1 (racemic) [D, reference compound] | log10 ED50 | 1.48 |
| C1=C(c2ccccc2)CCC(CCN2CC=C(c3ccccc3)CC2)C1 (racemic) [Compound C, reference compound] | log10 ED50 | 0.76 |
| C1=C(c2ccccc2)CCC(CN2CC=C(c3ccccc3)CC2)C1 (racemic) [B, reference compound] | log10 ED50 | 1.12 |

Prompt line: Reported log10 ED50 for C1=C(c2ccccc2)CCN(CC2CCC=C(c3ccccc3)C2)C1 (racemic) : what is it?
Response line: 0.20

Prompt line: Reported log10 ED50 for C1=C(c2ccccc2)CCC(N2CC=C(c3ccccc3)CC2)C1 (racemic) [A, reference compound] : what is it?
Response line: 1.11

###

# Measured On: dopamine receptors
# Procedure Text: Inhibition of [^3 H] spiroperidol binding
# Condition Summary: Table 1
Listing: IC50 of selected compounds
Express the result in µM but write the number alone.

Solved cases below.
| Compound | Display Unit | IC50 |
| --- | --- | --- |
| C1=C(c2ccccc2)CCN(C[C@@H]2CCC=C(c3cccnc3)C2)C1.Cl [Example 12, monohydrochloride] | µM | 0.082 |
| COc1ccc(C2=CCC[C@@H](CN3CC=C(c4ccccc4)CC3)C2)cc1.Cl [Example 11, monohydrochloride] | µM | 0.1 |

As a next step, examine the compound that follows.
Prompt line: Reported IC50 for C1=C(c2ccccc2)C[C@H](CN2CCN(c3ccccn3)CC2)CC1 : what is it?
Response line: 0.076
